test: folding enthalpy; higher = less favourable; fluorescence melt of hairpins on a sequencing array, two-state fit; conditions: sodium 0.088 M
measurement_label: folding enthalpy (kcal/mol)

{"seq": "GCAAAGCGAAAGCTCTGC (((.(((....))).)))", "measurement_label": "folding enthalpy", "result_number": -31.1}
{"seq": "GACCCTGGAAACAAGGTC ((((.((....)).))))", "measurement_label": "folding enthalpy", "result_number": -27.1}
{"seq": "GATCTATATTTAGATC ((((((....))))))", "measurement_label": "folding enthalpy", "result_number": -34.6}
{"seq": "GTGTCAGGAAACTGACGC (.(((((....))))).)", "measurement_label": "folding enthalpy", "result_number": -40.5}
{"seq": "GTGTCCTCGAAAGAGCAC (((..(((....))))))", "measurement_label": "folding enthalpy", "result_number": -14.5}
{"seq": "GGTTCCGGAAACGGGATC (.(.(((....))).).)", "measurement_label": "folding enthalpy", "result_number": -19.4}
{"seq": "GCTAGCGAAAGCTCAGC ((((((....))).)))", "measurement_label": "folding enthalpy", "result_number": -19.6}
{"seq": "GTGCCCGAAAGGGAGCAC ((((((....)))..)))", "measurement_label": "folding enthalpy", "result_number": -25.2}
{"seq": "GATCCTCAATAGGATC ((((((....))))))", "measurement_label": "folding enthalpy", "result_number": -34.2}
{"seq": "GGACGACGAAAGTCATCC (((.(((....))).)))", "measurement_label": "folding enthalpy", "result_number": -23.5}
{"seq": "GCGAGACGAAAGTCACGC (((.(((....))).)))", "measurement_label": "folding enthalpy", "result_number": -31.5}
{"seq": "GCAATGCGAAAGCGTAGC ((.(.((....)).).))", "measurement_label": "folding enthalpy", "result_number": -15.8}
{"seq": "GATCTGGCATCAGATC ((((((....))))))", "measurement_label": "folding enthalpy", "result_number": -46.2}
{"seq": "GATTGGGGAAACCTAATC ((((.((....)).))))", "measurement_label": "folding enthalpy", "result_number": -29.3}
{"seq": "GGCGGGGGAAACCTCGCC ((((.((....)).))))", "measurement_label": "folding enthalpy", "result_number": -32.4}
{"seq": "GTGTGATCGAAAGATCAC (((..(((....))))))", "measurement_label": "folding enthalpy", "result_number": -14}
{"seq": "GAAAGTGGAAACACCTTC (((.(((....))).)))", "measurement_label": "folding enthalpy", "result_number": -9.58}
{"seq": "GGCTTAGGAAACTAAGTC (.(((((....))))).)", "measurement_label": "folding enthalpy", "result_number": -32.5}
{"seq": "GGGGGCGGAAACGCCTCC ((.((((....)))).))", "measurement_label": "folding enthalpy", "result_number": -24.1}
{"seq": "GAAAGTGGAAACACTTCC (.(((((....))))).)", "measurement_label": "folding enthalpy", "result_number": -16.6}
{"seq": "GTGTTCGAAAGAATCAC ((((((....))).)))", "measurement_label": "folding enthalpy", "result_number": -28.2}
{"seq": "GACGGGGCGAAAGCCGTC (((..(((....))))))", "measurement_label": "folding enthalpy", "result_number": -15.6}
{"seq": "GATCCGTGGACGGATC ((((((....))))))", "measurement_label": "folding enthalpy", "result_number": -41}
{"seq": "GGGGCGGGAAACCACCCC ((((.((....)).))))", "measurement_label": "folding enthalpy", "result_number": -52}
{"seq": "GGTTCTGGAAACAGGACC (((.(((....))).)))", "measurement_label": "folding enthalpy", "result_number": -45.3}
{"seq": "GATCGGATGGCCGATC ((((((....))))))", "measurement_label": "folding enthalpy", "result_number": -29.9}
{"seq": "GTTTCCGAAAGGAAAC ((((((....))))))", "measurement_label": "folding enthalpy", "result_number": -41.3}
{"seq": "GCGTCCGGAAACAGACGC (((((.(....).)))))", "measurement_label": "folding enthalpy", "result_number": -36.1}
{"seq": "GCTGAGCGAAAGCAAAGC (((..((....))..)))", "measurement_label": "folding enthalpy", "result_number": -28.5}
{"seq": "GATCCTGGAAGGATC ((((((...))))))", "measurement_label": "folding enthalpy", "result_number": -31.6}
{"seq": "GGTAAGGGAAACCTTACC (((((((....)))))))", "measurement_label": "folding enthalpy", "result_number": -46.1}
{"seq": "GGGTCTTCGAAAGAACCC (((..(((....))))))", "measurement_label": "folding enthalpy", "result_number": -29.2}
{"seq": "GATCCATCCGTGGATC ((((((....))))))", "measurement_label": "folding enthalpy", "result_number": -46.6}
{"seq": "GGGCTGGCGAAAGCCCCC (((..(((....))))))", "measurement_label": "folding enthalpy", "result_number": -12.9}
{"seq": "GCTTAACGAAAGTTTAGC (((.(((....))).)))", "measurement_label": "folding enthalpy", "result_number": -30.5}
{"seq": "GAATGCGAAAGCACCTTC ((((((....)))..)))", "measurement_label": "folding enthalpy", "result_number": -11.2}
{"seq": "GCTCGACGAAAGTCAGC (((.(((....))))))", "measurement_label": "folding enthalpy", "result_number": -19.3}
{"seq": "GCATAGCGAAAGCTCCGC ((..(((....)))..))", "measurement_label": "folding enthalpy", "result_number": -8.77}
{"seq": "GAGAATGAAAATTCTC ((((((....))))))", "measurement_label": "folding enthalpy", "result_number": -31.8}
{"seq": "GATCACCGAAAGGTTATC (((.(((....))).)))", "measurement_label": "folding enthalpy", "result_number": -27.7}
{"seq": "GCAACGCGAAAGCGGAGC ((..(((....)))..))", "measurement_label": "folding enthalpy", "result_number": -24.5}
{"seq": "GGGAGCGGAAACACCCCC (((.(.(....).).)))", "measurement_label": "folding enthalpy", "result_number": -16}
{"seq": "GATCCGAATCGGATC ((((((...))))))", "measurement_label": "folding enthalpy", "result_number": -36}
{"seq": "GGTGTTGGAAACAACGCC ((.((((....)))).))", "measurement_label": "folding enthalpy", "result_number": -36.1}
{"seq": "GTGTCAGGAAACTAACAC ((((.((....)).))))", "measurement_label": "folding enthalpy", "result_number": -20.3}
{"seq": "GACTCCGAAAGGAAGGTC ((((((....)))..)))", "measurement_label": "folding enthalpy", "result_number": -22.1}
{"seq": "TGACAGAAATGTCA (((((....)))))", "measurement_label": "folding enthalpy", "result_number": -20.1}
{"seq": "GGGTACCGAAAGGTCCCC (((.(((....))).)))", "measurement_label": "folding enthalpy", "result_number": -22.9}
{"seq": "GACAGCGAAAGCTTGGTC ((((((....)))..)))", "measurement_label": "folding enthalpy", "result_number": -17.9}
{"seq": "GCACCGCGAAAGCAGGGC ((.(.((....)).).))", "measurement_label": "folding enthalpy", "result_number": -16}
